target: T1, human 4-1BB expressed on cells (human, UniProt Q07011 24-255); assay: flow cytometry competition with biotinylated human 4-1BB ligand on CHO-K1/human 4-1BB cells
T1 construct: whole, on cells; also called CHO-K1/hu4-1BB; cell surface human 4-1BB
T1 sequence (Q07011 24-255): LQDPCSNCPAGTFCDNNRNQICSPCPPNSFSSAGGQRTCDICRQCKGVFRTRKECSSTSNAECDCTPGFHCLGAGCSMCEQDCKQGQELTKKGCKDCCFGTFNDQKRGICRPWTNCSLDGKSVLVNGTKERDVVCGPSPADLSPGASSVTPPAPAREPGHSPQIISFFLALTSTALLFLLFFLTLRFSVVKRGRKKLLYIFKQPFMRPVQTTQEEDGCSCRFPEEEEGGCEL
The reader will find reported IC50 values listed item by item below.
Reply numerically in nM, unit not repeated.

Example results:
Qu. Answer with reported IC50 of VV02-1SP (1)-73 (Fc fusion, not shown: a dimerising Fc or GST; small tags and cut ends, Llama nanobody tested as fusion with human IgG1 Fc (N297A)) VHH: EVDLVESGGGLVQPGGSLRLSCAVSGFTFSNSAMSWARQAPGKEFEWVSSIYSDGKTYYVDSVKGRFTISRDNAKNTVYLQMSSLKPEDTAVYYCATWKTLRVGVWDESDYWGQGTQVTVSS
Ans. 0.573

Qu. Answer with reported IC50 of VV02-1LP-288 (Fc fusion, not shown: a dimerising Fc or GST; small tags and cut ends, Llama nanobody tested as fusion with human IgG1 Fc (N297A)) VHH: EVQVVESGGGLVQPGGSLRLSCAASGSSLDYSAIGWFRQAPGKEREGVLCISSSGDVTIYADSVKGRFTISRDNAKNTVYLQMNSLKPEDTAVYYCVAPRICSTYSSDDYWGQGTQVTVSS
Ans. 2.57

Qu. Answer with reported IC50 of VV02-3LP-142 (Fc fusion, Llama nanobody tested as fusion with human IgG1 Fc (N297A); not shown: Human IgG1 Fc fragment with N297A, plus the hinge or linker joining it to the nanobody) VHH: AVQLVESGGGLVQRGGSLKLSCVGSGFDFSDHAMSWARQVPGKGFEWVAYIYSDGSTYYADSVKGRFTISRDNAKDTVYLHMNSLKFEDMAVYYCATWRSQQVGRWDEYDHWGQGTQVTVSS
Ans. 0.923

Qu. Answer with reported IC50 of VV02-1LP-238 (Fc fusion, not shown: a dimerising Fc or GST; small tags and cut ends, Llama nanobody tested as fusion with human IgG1 Fc (N297A)) VHH: QVQLVESGGGLVQAGGALRLSCAASGFTLDYSAIGWFRQAPGKEREGVLCISSSGDVTIYADSVKGRFTISRDNAKNTVYLQMNSLKPEDTAVYYCVAPRICSTYSSDDYWGQGTQVTVSS
Ans. 1.88

Qu. Answer with reported IC50 of VV02-1LP-317 (Fc fusion, not shown: a dimerising Fc or GST; small tags and cut ends, Llama nanobody tested as fusion with human IgG1 Fc (N297A)) VHH: EVDLVESGGGLVQPGGSLRLSCAASGFTFSRSAMSWARQAPGKGFEWVSGIYSGGSTYYVDSVEGRFTISRDNAKNTVYLQMNSLKPEDTAVYYCATWGSQQIGVWHEDDYWGQGTQVTVSS
Ans. 1.42

Qu. Answer with reported IC50 of VV02-1SP (1)-168 (Fc fusion, not shown: a dimerising Fc or GST; small tags and cut ends, Llama nanobody tested as fusion with human IgG1 Fc (N297A)) VHH: QVQLVESGGGLVQPGGSLRLSCAASGFTFSSYAMSWARQAPGKDFEWVSYIYSDGNTYYADSVKGRFTISRDNAKNTVYLQMNSLKPEDTAVYYCATWHTLRVGVWDEYDYWGQGTQVTVSS
Ans. 0.387

Qu. Answer with reported IC50 of VV02-1LP-417 (Fc fusion, Llama nanobody tested as fusion with human IgG1 Fc (N297A); not shown: Human IgG1 Fc fragment with N297A, plus the hinge or linker joining it to the nanobody) VHH: QLQLVESGGGLVQPGGSLRLSCAASGFALDYSAIGWFRQAPGKEREGVLCISSSGDVTIYADSVKGRFTISRDNAKNTVYLQMNSLKPEDTAVYYCVAPRICSTYSSDDYWGQGTQVTVSS
Ans. 2.05

Qu. Answer with reported IC50 of VV02-1SP (1)-358 (Fc fusion, not shown: a dimerising Fc or GST; small tags and cut ends, Llama nanobody tested as fusion with human IgG1 Fc (N297A)) VHH: EVQLVESGGGLVQPGGSLMISCAASGFTFSSSAMSWARQVPGKGFEWVAYIYSDGSTYYADSVKGRFTISRDNAKDTVYLHMNSLKFEDMAVYYCATWRSQQVGRWDKYDYWGQGTQVTVSS
Ans. 0.988

Next item in the queue.
Qu. Answer with reported IC50 of VV02-1LP-263 (Fc fusion, Llama nanobody tested as fusion with human IgG1 Fc (N297A); not shown: Human IgG1 Fc fragment with N297A, fused at the C-terminus of the VHH) VHH: EVQLVESGGGLVQPGGSLRLSCAASGFTFSSSAMSWARQTPGKGFEWVSGIYSDGSTYYTDSVKDRFTISRDNAKNTVYLQMNSLKPEDTAVYYCATWGTLRFGVWAEYDHWGQGTQVTVSS
Ans. 0.566
